- procedure-details: chemical recovery from spiked human plasma; higher = better extraction
- measurement-context: pooled human plasma; extraction method: solvent precipitation (ACN + hexane)
Below: a set of entries, each annotated with reported chemical recovery.
Express the result in % but write the number alone.

Recorded results for 4 compounds are shown here.
CCOC(=O)c1ccc(N)cc1    64.9
c1ccc(COc2ccc3ccccc3c2)cc1    24.2
CN(C)CCOC(c1ccccc1)c1ccccc1 [Diphenhydramine]    52.4
CN(C)S(=O)(=O)c1ccc(N)cc1 [4-Amino-NN-dimethylbenzenesulfonamide]    77.3

Please look at the following compound next.
Exercise: For COc1ccc2cc(C(C)C(=O)O)ccc2c1 (stereo not given) , what is its reported chemical recovery?
Solution: 70.2
